// reported pIC50 per item
- system-tested: Dihydroorotate dehydrogenase (quinone), mitochondrial (Plasmodium falciparum (isolate 3D7))
- Sequence (Q08210 whole entry): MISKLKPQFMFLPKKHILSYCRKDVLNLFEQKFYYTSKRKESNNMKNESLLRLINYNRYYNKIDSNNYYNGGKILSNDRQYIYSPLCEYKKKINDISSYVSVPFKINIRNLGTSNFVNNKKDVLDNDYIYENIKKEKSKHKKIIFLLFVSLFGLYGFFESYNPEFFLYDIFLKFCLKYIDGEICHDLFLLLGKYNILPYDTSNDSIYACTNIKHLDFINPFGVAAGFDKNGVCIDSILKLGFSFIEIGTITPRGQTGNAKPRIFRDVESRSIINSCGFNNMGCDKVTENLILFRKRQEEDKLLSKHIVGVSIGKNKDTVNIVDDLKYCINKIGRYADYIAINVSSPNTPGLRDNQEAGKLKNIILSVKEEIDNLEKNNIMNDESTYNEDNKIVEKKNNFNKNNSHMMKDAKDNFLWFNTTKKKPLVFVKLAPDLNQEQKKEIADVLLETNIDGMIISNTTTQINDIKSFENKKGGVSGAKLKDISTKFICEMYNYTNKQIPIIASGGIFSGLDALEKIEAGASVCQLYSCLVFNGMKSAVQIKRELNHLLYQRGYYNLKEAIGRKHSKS
- test-name: DHODH Inhibition Assay
- applied-conditions: pH 8; 20 °C
pIC50: −log10 of the molar value.

- compound-structure-string: "Cc1cc(Nc2ccccc2C(F)(F)F)n2ncnc2n1"
  pIC50: "< 4.00"
- compound-structure-string: "Cc1cc(Nc2ccccc2C)n2ncnc2n1"
  pIC50: "< 4.00"
- compound-structure-string: "Cc1cc(Nc2c(F)c(F)cc(F)c2F)n2ncnc2n1"
  pIC50: "< 4.00"
- compound-structure-string: "Cc1cc(Nc2ccccc2)n2ncnc2n1"
  pIC50: "< 3.70"
- compound-structure-string: "Cc1cc(Nc2c(F)cccc2F)n2ncnc2n1"
  pIC50: "< 4.00"
- compound-structure-string: "Cc1cc(Nc2ccccc2Cl)n2ncnc2n1"
  pIC50: "< 4.00"

# pIC50 lookup, item `Cc1cc(Nc2ccccc2C#N)n2ncnc2n1`
< 4.00

# pIC50 lookup, item `Cc1cc(Nc2cc(F)ccc2F)n2ncnc2n1`
< 4.30

# pIC50 lookup, item `Cc1cc(Nc2ccccc2F)n2ncnc2n1`
< 4.00

# pIC50 lookup, item `Cc1cc(Nc2c(F)cc(F)cc2F)n2ncnc2n1`
< 4.00
